Values from patent US10111854B2

# assay_protocol: Cytotoxicity, L929 fibroblasts
# Assay type: cell-based, mouse
# conditions_used: mouse
parameter: pIC50
The quantity pIC50 is defined as the negative base-10 logarithm of the molar concentration.

compound | reported_measurement
O=c1cc(-c2ccc(OCCOCCN(Cc3ncccc3Cl)Cc3ncccc3Cl)cc2)oc2ccccc12 [FM09g] | 4.47
CN(CCOc1ccc(-c2cc(=O)c3ccccc3o2)cc1)CCN(C)Cc1ccncc1 [FM02] | 4.66
COc1ccnc(CN2CCN(CCOc3ccc(-c4cc(=O)c5ccccc5o4)cc3)CC2)c1OC [FM01b] | 4.02
O=c1cc(-c2ccc(OCCN3CCCN(Cc4ccncc4)CC3)cc2)oc2ccccc12 [FM14] | 4.97
O=c1cc(-c2ccc(OCCOCCN(Cc3ccccc3)Cc3ccccc3)cc2)oc2ccccc12 [FM19] | 4.26
O=c1cc(-c2ccc(OC[C@@H]3CCCN3Cc3ccncc3)cc2)oc2ccccc12 [FM18] | 4.41

### Prompt Give its pIC50 value. Item: Cc1c(OCC(F)(F)F)ccnc1CN(CCOCCOc1ccc(-c2cc(=O)c3ccccc3o2)cc1)Cc1nccc(OCC(F)(F)F)c1C [FM09h]
### Response 5.44

### Prompt Give its pIC50 value. Item: O=c1cc(-c2ccc(OCCOCCNCc3ccccn3)cc2)oc2ccccc12 [FM09m]
### Response 4.62

### Prompt Give its pIC50 value. Item: Cc1cccc(CN(CCOCCOc2ccc(-c3cc(=O)c4ccccc4o3)cc2)Cc2cccc(C)n2)n1 [FM09e]
### Response 4.73

###

# System: RAW264.7 cells
# assay_protocol: Reactive oxygen species (ROS) level, DCFDA, RAW264.7
# Format: cell-based, murine
# conditions_used: 30 μM, 6 hr
parameter: RAW264.7 ROS Level, Relative fold (RF) (fold)
Just the number in fold, nothing appended.

molecule | assay_system | RAW264.7 ROS Level, Relative fold (RF) (fold)
O=c1cc(-c2ccc(OCCOCCN(Cc3ccccn3)Cc3ccccn3)cc2)oc2ccccc12 | RAW264.7 cells | 1.3
CC(C)(C)OO [tert-butyl hydroperoxide] | RAW264.7 cells | 2.6
N=C(N)c1ccc(OCCCCCOc2ccc(C(=N)N)cc2)cc1 | RAW264.7 cells | 1.1
C[C@@H]1[C@H](O)[C@@H](C)/C=C/C=C/C=C/C=C/C=C/C=C/C=C/[C@H](O[C@@H]2O[C@H](C)[C@@H](O)[C@H](N)[C@@H]2O)C[C@@H]2O[C@](O)(C[C@@H](O)C[C@@H](O)[C@H](O)CC[C@@H](O)C[C@@H](O)CC(=O)O[C@H]1C)C[C@H](O)[C@H]2C(=O)O | RAW264.7 cells | 1.5

# context switch: different molecule, same RAW264.7 ROS Level, Relative fold (RF)
### Prompt Give its RAW264.7 ROS Level, Relative fold (RF) value. Item: O=c1cc(-c2ccc(OCCOCCN(CCOCCOc3ccc(-c4cc(=O)c5ccccc5o4)cc3)Cc3ccncc3)cc2)oc2ccccc12
### Response 1.3

###

# System: RAW264.7 cells
# assay_protocol: Reactive oxygen species (ROS) level, DCFDA, RAW264.7
# Assay type: cell-based, murine
# conditions_used: 30 μM, 20 hr
parameter: RAW264.7 ROS Level, Relative fold (RF) (fold)
Just the number in fold, nothing appended.

Below, 3 compounds whose answers are already recorded.
compound | parameter | reported_measurement
O=c1cc(-c2ccc(OCCOCCN(CCOCCOc3ccc(-c4cc(=O)c5ccccc5o4)cc3)Cc3ccncc3)cc2)oc2ccccc12 | RAW264.7 ROS Level, Relative fold (RF) | 1.3
N=C(N)c1ccc(OCCCCCOc2ccc(C(=N)N)cc2)cc1 | RAW264.7 ROS Level, Relative fold (RF) | 0.9
CC(C)(C)OO [tert-butyl hydroperoxide] | RAW264.7 ROS Level, Relative fold (RF) | 1.9

### Prompt Give its RAW264.7 ROS Level, Relative fold (RF) value. Item: C[C@@H]1[C@H](O)[C@@H](C)/C=C/C=C/C=C/C=C/C=C/C=C/C=C/[C@H](O[C@@H]2O[C@H](C)[C@@H](O)[C@H](N)[C@@H]2O)C[C@@H]2O[C@](O)(C[C@@H](O)C[C@@H](O)[C@H](O)CC[C@@H](O)C[C@@H](O)CC(=O)O[C@H]1C)C[C@H](O)[C@H]2C(=O)O
### Response 1.3

### Prompt Give its RAW264.7 ROS Level, Relative fold (RF) value. Item: O=c1cc(-c2ccc(OCCOCCN(Cc3ccccn3)Cc3ccccn3)cc2)oc2ccccc12
### Response 1.4

###

# System: mouse fibroblast (L929)
# assay_protocol: Cytotoxicity, L929 fibroblasts
# Format: cell-based
# conditions_used: mouse fibroblast L929
Structures can show the parent of a compound that is named as a salt.
parameter: pIC50
The quantity pIC50 is defined as the negative base-10 logarithm of the molar concentration.

Below, 3 molecules whose answers are already recorded.
molecule | reported_measurement
O=c1cc(-c2ccc(OCCOCCN(Cc3cccnc3)Cc3cccnc3)cc2)oc2ccccc12 [FM09b.HCl] | 4.12
COc1ccnc(CN(CCOCCOc2ccc(-c3cc(=O)c4ccccc4o3)cc2)Cc2nccc(OC)c2OC)c1OC [FM09aHCl] | 4.89
O=c1cc(-c2ccc(OCCOCCN(Cc3ncccc3F)Cc3ncccc3F)cc2)oc2ccccc12 [FM09c.HCl] | 4.41

### Prompt Give its pIC50 value. Item: O=c1cc(-c2ccc(OCCN3CCN(Cc4ccncc4)CC3)cc2)oc2ccccc12 [FM01.HCl]
### Response 4.47

### Prompt Give its pIC50 value. Item: O=c1cc(-c2ccc(OCCOCCN(Cc3ccccn3)Cc3ccccn3)cc2)oc2ccccc12 [FM09.HCl]
### Response 4.69

###

# Test system: L. amazonensis LV78 promastigotes
# assay_protocol: Anti-promastigote activity (MTS assay), L. amazonensis LV78
# Format: cell-based
# conditions_used: Leishmania amazonensis, 72 hours
# Experimental: Promastigotes of visceral L. donovani Ld39 and LdHU3, and cutaneous L. amazonensis LV78, L. braziliensis UA847 and L. major FV1 were employed in the study. […] Anti-promastigote activity was determined according to previous procedures (1) by Cell Titer 96® Aqueous Assay (Promega) that employed a tetrazolium compound. […] After 4 hours of incubation, the OD values were determined at 490 nm using automatic microtiter plate reader (Bio-Rad). […]
parameter: IC50 (µM)
Just the number in µM, nothing appended.

Below, 3 compounds whose answers are already recorded.
compound | IC50 (µM)
Cc1cccc(CN(CCOCCOc2ccc(-c3cc(=O)c4ccccc4o3)cc2)Cc2cccc(C)n2)n1 [FM09e] | 7.41
COc1ccnc(CN2CCN(CCOc3ccc(-c4cc(=O)c5ccccc5o4)cc3)CC2)c1OC [FM01b] | 3.99
O=c1cc(-c2ccc(OCCOCCN(Cc3ccccc3)Cc3ccccc3)cc2)oc2ccccc12 [FM19] | 17.5

# context switch: different compound, same IC50
### Prompt Give its IC50 value. Item: O=c1cc(-c2ccc(OCCC3CCN(Cc4ccncc4)CC3)cc2)oc2ccccc12 [FM05]
### Response 5.1

###

# assay_protocol: Cytotoxicity, peritoneal elicited macrophages (PEM)
# Format: cell-based, mouse
# conditions_used: mouse, Cytotoxicity IC50, PEM
Below is a list of entries, each paired with its recorded pIC50 value.
The quantity pIC50 is defined as the negative base-10 logarithm of the molar concentration.

Below, 8 molecules whose answers are already recorded.
molecule | pIC50
O=c1cc(-c2ccc(OCCOCCNCc3ccccc3)cc2)oc2ccccc12 | 4.69
Cc1c(OCC(F)(F)F)ccnc1CN(CCOCCOc1ccc(-c2cc(=O)c3ccccc3o2)cc1)Cc1nccc(OCC(F)(F)F)c1C [FM09h] | 5.19
O=c1cc(-c2ccc(OCCOCCNCc3ccccn3)cc2)oc2ccccc12 [FM09m] | 4.55
CN(CCOc1ccc(-c2cc(=O)c3ccccc3o2)cc1)CCN(C)Cc1ccncc1 | 4.66
O=c1cc(-c2ccc(OCCC3CCN(Cc4ccccn4)CC3)cc2)oc2ccccc12 [FM05a] | 4.75
O=c1cc(-c2ccc(OCCOCCN(Cc3ccccn3)Cc3ccccn3)cc2)oc2ccccc12 | 4.66
NCCOCCOc1ccc(-c2cc(=O)c3ccccc3o2)cc1 | 4.24
O=c1cc(-c2ccc(OCCOCCN(Cc3ncccc3F)Cc3ncccc3F)cc2)oc2ccccc12 [FM09c] | 4.45

### Prompt Give its pIC50 value. Item: O=c1cc(-c2ccc(OCCOCCN(CCOCCO)Cc3ccncc3)cc2)oc2ccccc12
### Response 4.23

### Prompt Give its pIC50 value. Item: O=c1cc(-c2ccc(OCCOCCN(Cc3ccc4ccccc4n3)Cc3ccc4ccccc4n3)cc2)oc2ccccc12 [FM09l]
### Response 4.17

### Prompt Give its pIC50 value. Item: COc1ccnc(CN(CCOCCOc2ccc(-c3cc(=O)c4ccccc4o3)cc2)Cc2nccc(OC)c2OC)c1OC [FM09a]
### Response 4.98

### Prompt Give its pIC50 value. Item: COCCCOc1ccnc(CN(CCOCCOc2ccc(-c3cc(=O)c4ccccc4o3)cc2)Cc2nccc(OCCCOC)c2C)c1C [FM09k]
### Response 5.28

### Prompt Give its pIC50 value. Item: CCCCCCCCCCCCCCCCOP(=O)([O-])OCC[N+](C)(C)C [Miltefosine, reference compound]
### Response 4.12
